Record form. Attribute: pKd. Fill in for each entry.
# tgt: T1, Cynomolgus monkey serum albumin (CSA) (cynomolgus monkey, UniProt A2V9Z4 25-608)
# T1 construct: Bought protein (Abcam); also called cynomolgus monkey albumin
# assay-overview: ELISA on coated cynomolgus monkey albumin, anti-human Fc HRP, A650, one site-total binding fit
Remember, pKd is on a log scale: it is -log10 of the molar concentration.

Prompt: Which pKd value is on record for 4A01v1 (Fc fusion, also called Hz4A01v1; not shown: Human Fc carrier and its linker) VHH: EVQLVESGGGEVQPGGSLRLSCAASGFAFSTSGMVWVRQAPGKGLEWVSTISDDSRIIRYAESVKGRFTISRDNAKNTLYLQMNSLRAEDTAVYYCATYRAGSRIGSYEDYYRGQGTLVTVKP ?
Response: 9.80

Prompt: Which pKd value is on record for 4A01v3-4 (Fc fusion, also called Hz4A01v3-4; not shown: Human Fc carrier and its linker) VHH: EVQLVESGGGEVQPGGSLRLSCAASGFAFSTSGMSWVRQAPGKGLEWVSTISDDARIIRYAESVKGRFTISRDNAKNTLYLQMNSLRAEDTAVYYCATYRAGSRIGSYEDYYRGQGTLVTVKP ?
Response: 9.74
